Assay: protein stability index of a GFP-peptide fusion (yeast GPS) (PSI 1-4); higher = more stable; sorted into four equal gates, so the index is relative within each strain
Conditions: pdr5∆
METRIC: protein stability index

Name the recorded protein stability index of the item LFNNHLNGILADEMGLG [SNF2] in your answer.
2.64

Item LTLIFYDVLHDVFTINP [YML103C/NUP188] : provide protein stability index
2.09

Consider the sequence EIRPEMLGHYLGEFSIT [RPS15] . State its measured protein stability index.
3.02

Supply reported protein stability index belonging to this sequence: SEQKMKEDADLKRMEIL [SIR4]
3.34

Please supply the value of reported protein stability index for the item GIKYHATPPLKRFKDME [SMC1]
3.25

Return value of protein stability index for input VVFDSNEAPPKTSLADW [YMR153W/NUP53] , no commentary.
3.28

Could you please provide reported protein stability index for YKYKMRYVYAHFPINVN [RPL9A] ? Thanks!
2.29

Please report protein stability index for the following sequence: SILGKFCPIVEEIVSNS [YCS4]
1.51

Note protein stability index for the sequence shown: GGTSLFGNTSTSSAPAQ [YGL172W/NUP49]
2.19

For the sequence PDLQFIVISLKNTMFEK [SMC1] , give its reported protein stability index.
2.68

State, in one line, measured protein stability index of EDFLDKSYYLNTVMLQG [AAR2]
2.24
